assay overview: MDCK in vitro permeability assay, wild type MDCK cells with no inhibitor (A→B)
Type: in vitro ADME, Canine
condition parameters: dog, no Pgp inhibitor, apical to basolateral
assay endpoint: Papp A→B at 90 min, 5 μM

Briefly, Papp A→B at 90 min, 5 μM measured for O=C(O)CN1CCC(C(=O)N2CCC(c3ccc4c(n3)NCCC4)CC2)CC1 [Reference Compound] : < 0.23 ×10⁻⁶ cm/s
